molecular target: EGFR (D770_N771insNPG) (Homo sapiens (Human), UniProt P00533, INS770NPG); test: Potency of EGFR (D770_N771insNPG) enzymatic activity inhibition (ADP-Glo luminescence); details: recombinant EGFR (D770_N771insNPG) 1.5 nM, Poly(Glu, Tyr) substrate, ATP, 1 h at rt
Sequence (P00533 other isoform, or with tags, fused parts or gaps del 1-694/ins NPG behind 770 limits assumed): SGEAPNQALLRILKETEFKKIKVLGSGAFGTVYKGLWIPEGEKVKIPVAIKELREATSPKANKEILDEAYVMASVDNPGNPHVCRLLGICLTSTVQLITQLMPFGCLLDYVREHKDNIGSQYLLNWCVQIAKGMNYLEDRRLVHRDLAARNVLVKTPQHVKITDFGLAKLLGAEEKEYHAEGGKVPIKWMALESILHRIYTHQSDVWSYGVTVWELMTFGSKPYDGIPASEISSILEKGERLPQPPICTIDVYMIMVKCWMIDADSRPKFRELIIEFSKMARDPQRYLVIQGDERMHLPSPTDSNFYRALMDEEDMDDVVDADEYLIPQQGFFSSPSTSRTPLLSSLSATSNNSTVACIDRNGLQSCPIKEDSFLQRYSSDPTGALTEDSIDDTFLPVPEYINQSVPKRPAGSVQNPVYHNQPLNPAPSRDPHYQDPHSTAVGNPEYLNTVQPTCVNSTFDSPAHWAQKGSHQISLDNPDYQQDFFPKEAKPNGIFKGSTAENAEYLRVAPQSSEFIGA
pEC50: −log10 of the molar value.
Some compounds, each annotated with its measured pEC50.

COMPOUND | STUDY TARGET | pEC50
COc1c(F)cccc1Nc1c2[nH]c3c1C(=O)NCC3C/C=C/COCCOc1cnccc1-2 (centres unmarked) | EGFR (D770_N771insNPG) (Homo sapiens (Human), UniProt P00533, INS770NPG) | 8.30 to 9.00
COc1c(F)cccc1Nc1c2[nH]c3c1C(=O)NC[C@@H]3CCCCOCCOc1cnccc1-2 | EGFR (D770_N771insNPG) (Homo sapiens (Human), UniProt P00533, INS770NPG) | 8.30 to 9.00
COc1c(F)cccc1Nc1c2[nH]c3c1C(=O)NC[C@H]3CCCCOCCOc1cnccc1-2 | EGFR (D770_N771insNPG) (Homo sapiens (Human), UniProt P00533, INS770NPG) | 8.30 to 9.00
COc1c(F)cccc1Nc1c2[nH]c3c1C(=O)NCC3CCCCOCCOc1cnccc1-2 (centres unmarked) | EGFR (D770_N771insNPG) (Homo sapiens (Human), UniProt P00533, INS770NPG) | 8.30 to 9.00
COc1c(F)cccc1Nc1c2[nH]c3c1C(=O)NCC3C/C=C\COCCOc1cnccc1-2 (centres unmarked) | EGFR (D770_N771insNPG) (Homo sapiens (Human), UniProt P00533, INS770NPG) | ≥ 9.00

---

Known pEC50 of a selection of molecules
Target: EGFR (WT) (Homo sapiens (Human), UniProt P00533)
Sequence (P00533 25-1210): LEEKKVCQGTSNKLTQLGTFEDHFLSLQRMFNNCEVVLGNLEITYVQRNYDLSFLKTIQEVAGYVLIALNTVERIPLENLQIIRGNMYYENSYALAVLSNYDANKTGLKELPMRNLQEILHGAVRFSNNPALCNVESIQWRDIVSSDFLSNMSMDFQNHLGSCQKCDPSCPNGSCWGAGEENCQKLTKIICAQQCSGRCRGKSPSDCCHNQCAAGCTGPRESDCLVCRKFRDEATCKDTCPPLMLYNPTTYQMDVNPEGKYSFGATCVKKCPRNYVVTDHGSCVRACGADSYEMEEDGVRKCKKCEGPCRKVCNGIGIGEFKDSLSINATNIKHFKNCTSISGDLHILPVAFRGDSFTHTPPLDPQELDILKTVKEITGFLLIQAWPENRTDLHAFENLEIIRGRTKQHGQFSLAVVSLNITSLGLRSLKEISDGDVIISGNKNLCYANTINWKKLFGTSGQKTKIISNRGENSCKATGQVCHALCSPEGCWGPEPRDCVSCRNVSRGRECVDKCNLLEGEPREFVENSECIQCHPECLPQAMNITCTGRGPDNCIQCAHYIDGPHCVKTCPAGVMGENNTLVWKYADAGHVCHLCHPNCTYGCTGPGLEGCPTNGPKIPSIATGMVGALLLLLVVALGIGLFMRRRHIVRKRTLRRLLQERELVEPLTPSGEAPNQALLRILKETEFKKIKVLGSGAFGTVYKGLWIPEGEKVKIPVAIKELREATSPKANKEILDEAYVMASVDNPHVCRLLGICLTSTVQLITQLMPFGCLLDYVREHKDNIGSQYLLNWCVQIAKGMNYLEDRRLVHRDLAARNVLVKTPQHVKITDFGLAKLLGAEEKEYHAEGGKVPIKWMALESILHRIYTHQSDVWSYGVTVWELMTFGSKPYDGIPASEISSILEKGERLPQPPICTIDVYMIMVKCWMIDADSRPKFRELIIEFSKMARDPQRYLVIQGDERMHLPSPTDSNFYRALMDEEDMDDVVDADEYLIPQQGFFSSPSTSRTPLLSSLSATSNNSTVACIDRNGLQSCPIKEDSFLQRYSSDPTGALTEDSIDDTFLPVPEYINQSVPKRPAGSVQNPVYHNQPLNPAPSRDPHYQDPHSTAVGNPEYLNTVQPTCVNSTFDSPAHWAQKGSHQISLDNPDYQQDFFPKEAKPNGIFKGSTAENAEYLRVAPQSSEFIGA
Assay: Potency of EGFR enzymatic activity inhibition (WT) (ADP-Glo luminescence)
Settings: recombinant EGFR (WT) 4 nM, Poly(Glu, Tyr) substrate, ATP, 1 h at rt
Procedure: Example D. Primary Assay Used to Determine Potency of EGFR enzymatic activity Inhibition (WT) Compound activity was determined using recombinant EGFR protein (SignalChem, #E10-112G-10) and Poly(Glu, Tyr) substrate (Sigma-Aldrich, #P0275) in an in vitro enzymatic reaction. The enzymatic assay used to determine activity was a Luminescence assay using a Microplate Reader ClarioStar Plus. […]
pEC50: −log10 of the molar value.
MEASURE NAME: pEC50

MOLECULE | STUDY TARGET | READOUT VALUE
COc1c(F)cccc1Nc1c2[nH]c3c1C(=O)NC[C@@H]3CCCCOCCOc1cnccc1-2 | EGFR (WT) (Homo sapiens (Human), UniProt P00533) | 8.30 to 9.00
COc1c(F)cccc1Nc1c2[nH]c3c1C(=O)NCC3C/C=C\COCCOc1cnccc1-2 (centres unmarked) | EGFR (WT) (Homo sapiens (Human), UniProt P00533) | 8.30 to 9.00
COc1c(F)cccc1Nc1c2[nH]c3c1C(=O)NCC3CCCCOCCOc1cnccc1-2 (centres unmarked) | EGFR (WT) (Homo sapiens (Human), UniProt P00533) | ≥ 9.00
COc1c(F)cccc1Nc1c2[nH]c3c1C(=O)NC[C@H]3CCCCOCCOc1cnccc1-2 | EGFR (WT) (Homo sapiens (Human), UniProt P00533) | 8.30 to 9.00
COc1c(F)cccc1Nc1c2[nH]c3c1C(=O)NCC3C/C=C/COCCOc1cnccc1-2 (centres unmarked) | EGFR (WT) (Homo sapiens (Human), UniProt P00533) | 8.30 to 9.00
